target: PIM2 (Homo sapiens (Human), UniProt Q9P1W9); assay: Pim2 ATP depletion assay; format: biochemical; settings: 4 μM ATP, 10 μM BAD peptide
Sequence (Q9P1W9 whole entry, species assumed): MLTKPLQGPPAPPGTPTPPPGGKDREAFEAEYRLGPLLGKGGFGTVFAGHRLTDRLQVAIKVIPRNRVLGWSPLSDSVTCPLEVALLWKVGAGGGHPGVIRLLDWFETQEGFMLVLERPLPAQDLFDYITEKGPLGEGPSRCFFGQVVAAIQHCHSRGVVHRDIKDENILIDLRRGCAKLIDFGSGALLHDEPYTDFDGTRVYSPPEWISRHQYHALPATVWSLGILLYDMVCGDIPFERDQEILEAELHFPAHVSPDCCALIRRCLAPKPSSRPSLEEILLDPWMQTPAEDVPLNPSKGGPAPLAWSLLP
quantity: IC50 (µM)

| compound | IC50 / µM |
| --- | --- |
| C[C@H]1C[C@@H](N)CN(c2ccncc2Nc2cccc3cnc(-c4c(F)cccc4F)nc23)C1 | 0.852 |
| N[C@H]1C[C@@H](CF)CN(c2ccncc2Nc2cccc3cnc(-c4c(F)cccc4F)nc23)C1 | 0.02 |
| NC1CC(N)CN(c2ccncc2Nc2cccc3cnc(-c4c(F)cccc4F)nc23)C1 (centres unmarked) | 2.5 |
| NC1C=C(c2ccncc2Nc2cccc3cnc(-c4c(F)cccc4F)nc23)CCC1 (centres unmarked) | 0.392 |
| N[C@@H]1CN(c2ccncc2Nc2cccc3cnc(-c4c(F)cccc4F)nc23)CC[C@@H]1O | 0.09 |
| CCO[C@@H]1C[C@H](N)CN(c2ccncc2Nc2cccc3cnc(-c4c(F)cccc4F)nc23)C1 | 0.46 |
| N[C@@H]1CN(c2ccncc2Nc2cccc3cnc(-c4c(F)cccc4F)nc23)CC[C@H]1F | 0.498 |
| N[C@H]1CCCN(c2ccncc2Nc2cccc3cnc(-c4ccccc4F)nc23)C1 | 0.131 |
| C[C@@H]1C[C@H](N)CN(c2ccncc2Nc2cccc3cnc(-c4c(F)cccc4F)nc23)C1 | 0.009 |
| N[C@H]1CCCN(c2ccncc2Nc2cccc3cnc(-c4cccc(-c5nccs5)c4)nc23)C1 | 2 |

1. N[C@H]1CCCN(c2ccncc2Nc2cccc3cnc(-c4c(F)cccc4F)nc23)C1
2. N[C@H]1CCCN(c2ccncc2Nc2cccc3cnc(-c4nccs4)nc23)C1
3. N[C@@H]1CCCN(c2ccncc2Nc2cccc3cnc(-c4c(F)cccc4F)nc23)C1
4. N[C@@H]1CN(c2ccncc2Nc2cccc3cnc(-c4c(F)cccc4F)nc23)CC[C@H]1O
Ask: Could you please order the items by IC50, going from the lowest number to the highest? // rank by listing labels in the order requested
Reply: 1, 4, 2, 3
